Test system: HIV-1 BH10 W.T.
assay-overview: Anti-HIV-1 BH10 W.T. activity in presence of HS or AAG
Format: cell-based
condition-parameters: Human immunodeficiency virus 1, read-out: Average EC50 Values ± Standard Deviation, 10% Fetal Bovine Serum
pEC50: −log10 of the molar value.

| compound | pEC50 |
| --- | --- |
| CO[P@](=O)(c1cc(C)cc(/C=C/C#N)c1)c1c(C(N)=O)[nH]c2ccc(Cl)c(F)c12 [Compound I] | 8.96 |

###

subject-of-test: CYP1A2 (Homo sapiens)
Sequence (P05177 whole entry): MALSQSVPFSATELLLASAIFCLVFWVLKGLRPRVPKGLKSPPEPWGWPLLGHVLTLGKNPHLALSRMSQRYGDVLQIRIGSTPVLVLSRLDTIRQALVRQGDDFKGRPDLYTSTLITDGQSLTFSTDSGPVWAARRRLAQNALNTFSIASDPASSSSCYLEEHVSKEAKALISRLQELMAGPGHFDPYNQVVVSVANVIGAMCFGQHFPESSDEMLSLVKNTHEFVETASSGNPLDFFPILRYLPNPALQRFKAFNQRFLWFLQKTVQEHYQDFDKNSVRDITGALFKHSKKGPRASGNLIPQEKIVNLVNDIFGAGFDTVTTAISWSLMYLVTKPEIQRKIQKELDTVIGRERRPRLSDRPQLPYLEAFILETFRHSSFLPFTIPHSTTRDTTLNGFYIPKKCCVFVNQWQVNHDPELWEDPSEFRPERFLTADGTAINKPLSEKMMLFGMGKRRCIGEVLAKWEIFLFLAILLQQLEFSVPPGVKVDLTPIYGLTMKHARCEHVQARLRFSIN
assay-overview: Human liver microsomal CYP450 inhibition, CYP1A2
The molecules listed here are annotated with their IC50.

| structure | IC50 |
| --- | --- |
| CO[P@](=O)(c1cc(C)cc(/C=C/C#N)c1)c1c(C(N)=O)[nH]c2ccc(Cl)cc12 | > 20 µM |
| CO[P@](=O)(c1cc(C)cc(/C=C/C#N)c1)c1c(C(N)=O)[nH]c2ccc(Cl)c(F)c12 | > 20 µM |
